Reference for the values: ChEMBL document CHEMBL3352024

- protocolSummary: Cytotoxicity against human HepG2.2.15 cells after 48 hrs
- Format: cell-based
- settings: hepg2 2.2.15, 48 h
measuredParameter: TC50 (µmol)
Lab book: enter the figure in µmol, no units written.

Worked examples, 5 compounds total:
>>> print(df.to_string())
                                   compound  unittext    val
0  CCCN1CCN(CC2=C(C(=O)OCC)C(c3ccc(F)cc3Cl)N=C(c3c(F)cc(F)cc3F)N2)CC1 (centres undefined)      µmol  31.25
1  CCOC(=O)C1=C(CN2CCC(C)CC2)NC(c2c(F)cc(F)cc2F)=NC1c1ccc(F)cc1Cl (centres undefined)      µmol  32.98
2  CCOC(=O)C1=C(CN2CCCC2)NC(c2c(F)cc(F)cc2F)=NC1c1ccc(F)cc1Cl (centres undefined)      µmol  77.29
3  CCOC(=O)C1=C(CN2CCN(C(=O)OCC)CC2)NC(c2c(F)cc(F)cc2F)=NC1c1ccc(F)cc1Cl (centres undefined)      µmol   29.6
4  CCOC(=O)C1=C(CN(CCO)CCO)NC(c2c(F)cc(F)cc2F)=NC1c1ccc(F)cc1Cl (centres undefined)      µmol  54.02

Q: Provide measured TC50 value, entry: CCOC(=O)C1=C(CN2CCN(CC)CC2)NC(c2c(F)cc(F)cc2F)=NC1c1ccc(F)cc1Cl (centres undefined)
Result: 41.3

Q: Complete the entry with TC50 for CCOC(=O)C1=C(CN2CCCCC2)NC(c2c(F)cc(F)cc2F)=NC1c1ccc(F)cc1Cl (centres undefined)
Result: 25.21

Q: Consider the compound CCOC(=O)C1=C(CN2CCOCC2)NC(c2c(F)cc(F)cc2F)=NC1c1ccc(F)cc1Cl (centres undefined) . State its measured TC50.
Result: 33.75

Q: Note TC50 for the compound shown: CCOC(=O)C1=C(CN2CCOCC2)NC(c2c(F)cc(F)cc2F)=NC1c1ccc(F)cc1Cl.Cl (centres undefined)
Result: 31.48

----------
Below, each entry is listed alongside its reported TC0.
- protocolSummary: Cytotoxicity against human HepG2.2.15 cells after 48 hrs
- Assay type: cell-based
- settings: hepg2 2.2.15, 48 h
Quick note: give the figure in µmol, leave out the unit.

Worked cases, answers included:
In [3]: df
Out[3]:
                                   compound    val
0  CCOC(=O)C1=C(CN2CCOCC2)NC(c2c(F)cc(F)cc2F)=NC1c1ccc(F)cc1Cl.Cl (centres undefined)   4.51
1  CCOC(=O)C1=C(CN2CCOCC2)NC(c2c(F)cc(F)cc2N2CCOCC2)=NC1c1ccc(F)cc1Cl (centres undefined)  12.81
2  CCOC(=O)C1=C(CN2CCN(C(=O)OCC)CC2)NC(c2c(F)cc(F)cc2F)=NC1c1ccc(F)cc1Cl (centres undefined)   4.22
3  CCOC(=O)C1=C(CN(CCO)CCO)NC(c2c(F)cc(F)cc2F)=NC1c1ccc(F)cc1Cl (centres undefined)  13.98
4  CCOC(=O)C1=C(CN2CCCC2)NC(c2c(F)cc(F)cc2F)=NC1c1ccc(F)cc1Cl (centres undefined)  14.96
5  CCOC(=O)C1=C(CN2CCC(C)CC2)NC(c2c(F)cc(F)cc2F)=NC1c1ccc(F)cc1Cl (centres undefined)   4.65
6  CCOC(=O)C1=C(CN2CCSCC2)NC(c2c(F)cc(F)cc2F)=NC1c1ccc(F)cc1Cl (centres undefined)   4.68
7  CCOC(=O)C1=C(CN2CCOCC2)NC(c2c(F)cc(F)cc2F)=NC1c1ccc(F)cc1Cl (centres undefined)   4.83

Q: Please give the documented TC0 of Nc1ccn([C@@H]2CS[C@H](CO)O2)c(=O)n1 [LAMIVUDINE]
Result: 0.82

Q: Quickly give me recorded TC0 for CCOC(=O)C1=C(CN2CCNC(=O)C2)NC(c2c(F)cc(F)cc2F)=NC1c1ccc(F)cc1Cl (centres undefined)
Result: 4.7

Q: # return recorded TC0 for input CCOC(=O)C1=C(CN2CCCCC2)NC(c2c(F)cc(F)cc2F)=NC1c1ccc(F)cc1Cl (centres undefined)
Result: 14.56

Q: Please indicate TC0 recorded for CCOC(=O)C1=C(CN2CCN(C)CC2)NC(c2c(F)cc(F)cc2F)=NC1c1ccc(F)cc1Cl (centres undefined)
Result: 14.1

Q: Look up and state reported TC0 for CCCN1CCN(CC2=C(C(=O)OCC)C(c3ccc(F)cc3Cl)N=C(c3c(F)cc(F)cc3F)N2)CC1 (centres undefined)
Result: 4.45

Q: Tell me its TC0 given CCOC(=O)C1=C(CN2CCN(CC)CC2)NC(c2c(F)cc(F)cc2F)=NC1c1ccc(F)cc1Cl (centres undefined) as the entry.
Result: 13.78

----------
- Test system: hepatitis B virus
- protocolSummary: Selectivity index, ratio of TC50 for human HepG2.2.15 cells to IC50 for hepatitis B virus infected in human HepG2.2.15 cells
- Format: toxicity, cell-based
- settings: HepG2.2.15 cells, read-out: Selectivity Index
measuredParameter: selectivity ratio
// response body must contain only the number

In the examples that follow, each entry is paired with its recorded selectivity ratio.
                                   compound   val
0  CCOC(=O)C1=C(CN2CCN(CC)CC2)NC(c2c(F)cc(F)cc2F)=NC1c1ccc(F)cc1Cl (stereo unspecified)  6.16
1  CCOC(=O)C1=C(CN2CCNC(=O)C2)NC(c2c(F)cc(F)cc2F)=NC1c1ccc(F)cc1Cl (stereo unspecified)  5.72
2  CCOC(=O)C1=C(CN2CCCCC2)NC(c2c(F)cc(F)cc2F)=NC1c1ccc(F)cc1Cl (stereo unspecified)  2.46
3  CCOC(=O)C1=C(CN2CCN(C)CC2)NC(c2c(F)cc(F)cc2F)=NC1c1ccc(F)cc1Cl (stereo unspecified)  13.1

Q: Tell me selectivity ratio reported for CCOC(=O)C1=C(CN(CCO)CCO)NC(c2c(F)cc(F)cc2F)=NC1c1ccc(F)cc1Cl (stereo unspecified)
Result: 8.11

Q: Please give measured selectivity ratio of the following entry: CCOC(=O)C1=C(CN2CCOCC2)NC(c2c(F)cc(F)cc2N2CCOCC2)=NC1c1ccc(F)cc1Cl (stereo unspecified)
Result: 12.7
